- target_or_test_system: T1, FZD2 CRD (Homo sapiens, UniProt Q14332)
- T1 construct: D35-P161; GPI anchor signal (C); expressed in transfected cells; host or cells: CHO cells, lentiviral pLenti-puro
- method_description: Immunofluorescence of anti-FZD5 Fab binding to CHO cells overexpressing Frizzled CRD
- Parameters: key: −: no binding; +: very weak binder; ++: weak binder; +++: good binder; ++++: very good binder
observable: Immunofluorescence binding, Frizzled CRD overexpressed on CHO cells: FZD2

Fab-2929: anti-FZD5 Fab with antibody variable region Fv-2929; CDR SEQ ID NOs: 35, 36, 68, 106, 144, 162 (antibody, V domains shown) VH: EVQLVESGGGLVQPGGSLRLSCAASGFNISYYYIHWVRQAPGKGLEWVASIYPSSSSTSYADSVKGRFTISADTSKNTAYLQMNSLRAEDTAVYYCARGAMDYWGQGTLVTVSS VL: DIQMTQSPSSLSASVGDRVTITCRASQSVSSAVAWYQQKPGKAPKLLIYSASSLYSGVPSRFSGSRSGTDFTLTISSLQPEDFATYYCQQWYSSYGLITFGQGTKVEIK = −
